# tgt: anti-T4 Fab fragment
# procedure-summary: SPR (BIAcore T200) inhibition assay, immobilized T4-AP, affinity and specificity determination
# test-parameters: 2 nM anti-T4 Fab preincubated with analyte, T4-AP on CM5 chip, 2% DMSO-PBSP, triplicates
measured-attribute: pKd
One number for each entry, as −log10 of the molar value.

Recorded results for 3 molecules are shown here.
>>> val("N[C@@H](Cc1cc(I)c(Oc2cc(I)c(O)c(I)c2)c(I)c1)C(=O)O [Compound T4, 3,5,3′,5′-tetraiodothyronine]")
9.28
>>> val("CC(C)(c1cc(Br)c(O)c(Br)c1)c1cc(Br)c(O)c(Br)c1 [TBBPA, Tetrabromobisphenol A]")
7.16
>>> val("CC(C)(c1cc(I)c(O)c(I)c1)c1cc(I)c(O)c(I)c1 [TIBPA, Tetraiodobisphenol A]")
7.43

// next entry
Request: Given CC(C)(c1cc(Cl)c(O)c(Cl)c1)c1cc(Cl)c(O)c(Cl)c1 [TCBPA, Tetrachlorobisphenol A] , state its recorded pKd.
Result: 6.25

---

For each record, write down the corresponding pIC50.
# Tested on: anti-T4 Fab
# procedure-summary: competitive ELISA, T4-BSA coated wells, 0.25 nM anti-T4 Fab pre-incubated with analyte
# Type: binding, mouse
# test-parameters: by ELISA assay; read-out: relative IC50
Numbers only, as −log10 of the molar value.

Recorded results for 3 molecules are shown here.
>>> val("CC(C)(c1cc(Br)c(O)c(Br)c1)c1cc(Br)c(O)c(Br)c1 [TBBPA, Tetrabromobisphenol A]")
7.13
>>> val("N[C@@H](Cc1cc(I)c(Oc2cc(I)c(O)c(I)c2)c(I)c1)C(=O)O [Compound T4, 3,5,3′,5′-tetraiodothyronine]")
9.27
>>> val("CC(C)(c1cc(Cl)c(O)c(Cl)c1)c1cc(Cl)c(O)c(Cl)c1 [TCBPA, Tetrachlorobisphenol A]")
6.26

// next entry
Request: State its pIC50 on anti-T4 Fab: CC(C)(c1cc(I)c(O)c(I)c1)c1cc(I)c(O)c(I)c1 [TIBPA, Tetraiodobisphenol A]
Result: 7.27
